- Assay method text: NCI Yeast Anticancer Drug Screen. Data for the sgs1 mgt1 strain (AID 161);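 note: 0% = growth of cultures given vehicle only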
- Test parameters: S. cerevisiae sgs1 mgt1 strain, at 50.0 µM (retest, dose inferred, filed as 5.0), active compounds read high
This is part of a sample that, as a whole, favours compounds with a hit. Of some 79,000 tested, about 15% had one in any assay.
Label yes (1) when growth inhibition is at or above 90%; otherwise label no (0).

Some solved entries appear below for comparison.
{"Molecule": "CC1(C)[C@@H]2CC[C@]1(C)[C@H](OC(=O)CSC#N)C2", "Answer label": "yes (1)"}
{"Molecule": "c1ccc2c(c1)sc1cc3ccncc3cc12", "Answer label": "yes (1)"}
{"Molecule": "Cc1ccc(-n2cc(-c3ccc(Cl)cc3)c(C#N)c2N)cc1", "Answer label": "no (0)"}
{"Molecule": "CC(=O)OCC(=O)C1(O)CCC2C3CCC4CCCCC4(C)C3CCC21C (stereo not given)", "Answer label": "no (0)"}
{"Molecule": "OC1(c2ccccc2)CSC2=Nc3ccccc3C3CCN1N23 (stereo not given)", "Answer label": "no (0)"}

Kindly determine if growth inhibition recorded for `Cn1ccnc1Oc1ccc(Cl)cc1` is above or exactly 90%. no (0)

growth inhibition >= 90% for `CCOC(=O)c1cc(-c2ccc(Cl)cc2)c([N+](=O)[O-])n1C` ? no (0)

* * *

- Assay method text: NCI Yeast Anticancer Drug Screen. Data for the cln2 rad14 strain (AID 165);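 note: 0% = growth equal to vehicle treated cultures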
- Test parameters: S. cerevisiae cln2 rad14 strain, at 50.0 µM (retest, dose inferred, filed as 5.0)
The panel holds about 79,000 compounds, 15% with a hit somewhere; the sample as a whole holds those more often. Activity calls are given as the source filed them. No stated cut-off is given here; in the data, active means growth inhibition above about 70%; inactive means the rest.
Respond using exactly one of the listed classes: class 1 (active), class 0 (inactive)

Previously resolved entries follow.
{"Compound": "c1ccc2c(c1)sc1nc3ccncc3nc12", "Answer label": "class 0"}
{"Compound": "NC(=S)N/N=C\\c1nccc2ccccc12", "Answer label": "class 1"}
{"Compound": "c1ccc2c(c1)NC(NC1Nc3ccccc3N1)N2", "Answer label": "class 0"}
{"Compound": "CC(C)C1=CC2=C[C@H](O)[C@H]3C(C)(C)CCC[C@]3(C)C2=C(O)C1=O", "Answer label": "class 1"}
{"Compound": "CCN(CC)CCNc1ccc([N+](=O)[O-])c2nc3ccc(OC)cc3c(N)c12", "Answer label": "class 0"}

So what was the verdict on `CSC(=S)Nc1cc(C)ccn1` in this test? class 1

* * *

Measured growth inhibition of individual entries
- Assay method text: NCI Yeast Anticancer Drug Screen. Data for the CLN2oe strain (AID 163);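 note: 0% = growth of vehicle-only control cultures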
- Test parameters: S. cerevisiae CLN2oe strain, at 1.2 µM, active compounds read high
About 79,000 compounds went through this panel and 15% of them were active in at least one assay; those are over-represented in the sample as a whole.
// units = %; emit number, no label

{"Compound": "Cc1cc(I)ccc1N", "Unit string": "%", "growth inhibition": -10}
{"Compound": "CSC(=S)Nc1cc(C)ccn1", "Unit string": "%", "growth inhibition": 20}
{"Compound": "CC(=O)ON1C(=O)c2cccc3cccc(c23)C1=O", "Unit string": "%", "growth inhibition": 8}
{"Compound": "OC(COc1cccc2ccccc12)CN1CCOCC1 (configuration not stated)", "Unit string": "%", "growth inhibition": 21}

Need growth inhibition, item CC1(Cl)CC(O)C2(CC1Br)C1(C)OC1C1OC1(Br)C2(C)C (configuration not stated) 2

growth inhibition lookup needed for `CCCCCCCCCC/C=C\C(=O)O` , thanks. 15

Can you look up the measured growth inhibition of `O=C1C=CC(=C(c2ccccc2)c2ccccc2)c2ccccc21` for me? -1

* * *

Here, each record is paired with measured growth inhibition data.
- Assay method text: NCI Yeast Anticancer Drug Screen. Data for the sgs1 strain (AID 173);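 note: 0% = growth of vehicle-only control cultures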
- Test parameters: S. cerevisiae sgs1 mutant, at 3.7 µM, active compounds read high
This is part of a sample that, as a whole, favours compounds with a hit. Of some 79,000 tested, about 15% had one in any assay.
Unit % implied. Number only.

Reference set (5 entries):
{"Compound": "COCCOC(=O)CCn1cc(F)c(=O)[nH]c1=O", "Measurement kind": "growth inhibition", "Unit string": "%", "Endpoint result": 12}
{"Compound": "CCCCN1C(=O)N(c2ccc(OCC)cc2)C2N(CCCC)C1C(C)(C)C2(C)C (stereo not drawn)", "Measurement kind": "growth inhibition", "Unit string": "%", "Endpoint result": -2}
{"Compound": "C/C(=N/NC(=S)N1CCCCCC1)c1cccc(/C(C)=N\\NC(=S)N2CCCCCC2)n1", "Measurement kind": "growth inhibition", "Unit string": "%", "Endpoint result": 15}
{"Compound": "CCCc1cc(C(=O)OCC)cc(CCC)c1O", "Measurement kind": "growth inhibition", "Unit string": "%", "Endpoint result": -2}
{"Compound": "CCCCCCCCCCCC(=O)N(C)C", "Measurement kind": "growth inhibition", "Unit string": "%", "Endpoint result": -8}

API: the following record is the query input.
Consider the compound `O=C(/C=C/c1cccc(Br)c1)c1cccs1` and give its measured growth inhibition. 0

* * *

- Assay method text: NCI Yeast Anticancer Drug Screen. Data for the wt1 strain (AID 149);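 note: 0% = growth of vehicle-treated wt1 cultures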
- Test parameters: S. cerevisiae wt1 strain (SPY 50644) growth inhibition; at 100.0 µM
Compounds without any hit were thinned out: in the full panel of roughly 79,000, 15% have a hit. The source made the active and inactive calls. Rule as the data show it: active = growth inhibition above about 70%; inactive = the rest.
Pick one and only one: active, inactive

{"Molecule": "NCCNc1ccc(NCCN)c2c1C(=O)c1c(O)ccc(O)c1C2=O", "Answer label": "active"}
{"Molecule": "O=C1C(=O)c2ccccc2C=C1[N+](=O)[O-]", "Answer label": "inactive"}
{"Molecule": "C[C@@H]1C[C@H]2[C@@H]3CCC4=CC(=O)C=C[C@]4(C)[C@@]3(Cl)[C@@H](Cl)C[C@]2(C)[C@@]1(O)C(=O)COP(=O)(O)O", "Answer label": "inactive"}
{"Molecule": "Cc1cc(N=Nc2ccc(S(=O)(=O)[O-])cc2)cc(C(=O)[O-])c1[O-].NC1CCCCC1N.[Na+].[Pt+4]", "Answer label": "active"}
{"Molecule": "O=C1NC(=O)C2C3C=CC(C3)C12 (stereo not drawn)", "Answer label": "inactive"}
{"Molecule": "O=C1c2ccccc2-c2nc3ccccc3nc21", "Answer label": "inactive"}
{"Molecule": "CCCCCCc1cc(C(=O)OC/C(C)=N/NC(N)=O)c2ccccc2n1", "Answer label": "inactive"}
{"Molecule": "CC(C)/C(Cl)=N\\OC(=O)Nc1ccc(F)cc1", "Answer label": "inactive"}
{"Molecule": "C#CCCCc1ccccc1", "Answer label": "inactive"}
{"Molecule": "C(=C\\c1ccccc1)/COc1ccccc1C(N1CCOCC1)n1nc2ccccc2n1 (stereo not drawn)", "Answer label": "active"}

How was CC(=O)OC1CCC2(C)C(=CCC3C4CCC5(OC6CC(C)CN(C(C)=O)C6C5C)C(C)=C4C(=O)C32)C1 (stereo not drawn) classified in this test? active

Recorded test outcome, item FC(F)(F)c1cc(NC(=S)N2c3ccccc3-n3cccc3C2c2cccnc2)cc(C(F)(F)F)c1 (stereo not drawn) inactive

Outcome? `Cc1ccc(NC(=O)/C(Cl)=C(\Cl)C(=O)O)cc1C` active

Kindly provide the recorded test outcome for the following molecule: CCCCCCCC1(N=[N+]=[N-])C(=O)c2ccccc2N(C)C1=O (stereo not drawn) active

Hey, what did the test say about `CN(C)c1ccc(Sc2ccc3nc(N)nc(N)c3c2)cc1` ? inactive

Returns: the outcome recorded for `O=C(OCC=C1CCCC1)c1cc([N+](=O)[O-])cc([N+](=O)[O-])c1` in this assay. active

In this assay, the call recorded for `c1ccc2c(c1)NC(NC1Nc3ccccc3N1)N2` was what? inactive

Outcome? `CSC(=S)Nc1cc(C)ccn1` active

Recorded call for `Cc1ccc(Cl)c2[nH]c(-c3ccccc3)cc(=O)c12` ? inactive

For `O=C1Nc2ccc(Cl)c(I)c2C1=O` , which call appears in the assay record? inactive

Hi, sorry to bother you, what did the test record for `BrCC[P+](c1ccccc1)(c1ccccc1)c1ccccc1` ? active

Fill in: this test's call for `CC(C)OC(=O)Oc1ccccc1OC(=O)OC(C)C` is ___ inactive

Write down the call the test reported for this molecule. Item: Cc1ccc(C2C(Cl)C(=O)N2n2cnc3ccccc3c2=O)cc1 (stereo not drawn) inactive

What is the recorded call for this molecule in the test? `CC(=O)Oc1ccc2c(c1)Cc1cc(N=C3C=CC(=O)O3)ccc1-2` active

Status in this test for `Cc1ccc(-n2cc(-c3ccc(Cl)cc3)c(C#N)c2N)cc1` ? inactive

Record lookup: outcome of this test for `CC(C)/C(Cl)=N\OC(=O)Nc1ccccc1F` ? inactive

* * *

- Assay method text: NCI Yeast Anticancer Drug Screen. Data for the bub3 strain (AID 167)
- Test parameters: S. cerevisiae bub3 mutant strain, at 3.7 µM, active compounds read high
The panel holds about 79,000 compounds, 15% with a hit somewhere; the sample as a whole holds those more often. Activity calls are given as the source filed them. No stated cut-off is given here; in the data, active means growth inhibition above about 70%; inactive means the rest.
Collected growth inhibition values appear next to each entry.

Below: 3 molecules and their reported growth inhibition.
{"Molecule": "O=C(c1ccc(Cl)cc1Cl)C(Cl)Cl", "growth inhibition": "-11% (inactive)"}
{"Molecule": "CNC(=O)OCc1c(COC(=O)NC)c(-c2ccc(Cl)c(Cl)c2)n2c1CCC2", "growth inhibition": "-61% (inactive)"}
{"Molecule": "CCCCCCCCCCCC1=C(O)C(=O)C=C(O)C1=O", "growth inhibition": "-4% (inactive)"}

Fill in the blank: the reported growth inhibition of CC(O)C(O)C(O)C(/C=N\Nc1ccccc1)=N/Nc1ccccc1 (stereo unspecified) is ____. -3% (inactive)

Would you kindly share the measured growth inhibition for CC(C(=O)N1C(=O)N(C(=O)[C@H](C)C(O)c2ccccc2)[C@H](c2ccccc2)[C@H]1c1ccccc1)[C@@H](O)c1ccccc1 (stereo partly specified) ? -3% (inactive)

Suppose we examine the molecule `CCc1ccc(NS(=O)(=O)c2ccccc2)c([N+](=O)[O-])c1` ; what growth inhibition value has been reported? 4% (inactive)

What value of measured growth inhibition is listed for `N#CSc1ccc(S(N)(=O)=O)cc1` ? -37% (inactive)

Entry under review: `N/C(=N\OC(=O)NC(Cl)=C(Cl)Cl)c1cc(C(F)(F)F)cc(C(F)(F)F)c1` . Reported growth inhibition? -9% (inactive)

What measured growth inhibition goes with `Cc1ccc(S(=O)(=O)Oc2cc(Cl)c(Cl)cc2Cl)cc1` ? 3% (inactive)

// returns reported growth inhibition for input `CCN(CC)CC[n+]1ccc2c(C)c3[nH]c4ccc(O)cc4c3c(C)c2c1` 3% (inactive)

Query (molecule): `COC(=O)CSSCc1ccc([N+](=O)[O-])cc1` ; field requested: growth inhibition 5% (inactive)

All values here come from PubChem BioAssay (NCI).
